- Study target: hCX3CR1 (Homo sapiens, UniProt P49238)
- Sequence (P49238 whole entry): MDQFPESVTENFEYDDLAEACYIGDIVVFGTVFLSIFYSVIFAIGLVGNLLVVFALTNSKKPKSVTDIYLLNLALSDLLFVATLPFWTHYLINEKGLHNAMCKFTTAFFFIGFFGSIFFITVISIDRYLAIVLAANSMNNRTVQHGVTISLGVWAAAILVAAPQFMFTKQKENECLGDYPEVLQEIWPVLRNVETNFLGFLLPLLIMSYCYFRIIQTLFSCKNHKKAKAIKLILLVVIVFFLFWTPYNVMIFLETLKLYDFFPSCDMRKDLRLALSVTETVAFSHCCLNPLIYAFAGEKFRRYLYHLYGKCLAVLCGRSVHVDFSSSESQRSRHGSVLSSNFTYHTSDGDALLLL
- Test summary: Suchi5 assay (HEK/NatClytin/CNG/Suchi5 transiently transfected hCX3CR1, Fluo-8 Ca2+ readout)
- Type: cell-based
- Parameters: expressed in transfected cells; stably expresses a Ca2+ sensitive photo-protein
- Test parameters: Suchi5 assay, HEK/NatClytin/CNG/Suchi5 transfected with hCX3CR1; read-out: hCX3CR1 agonism EC50
This listing pairs compounds with measured pEC50.
In simple prose, pEC50 is minus the logarithm base ten of a concentration in moles per litre.

Recorded results for 2 compounds are shown here.
                                   compound                            study_target  numeric_result
0  CC1(O)CCCN(CC2(CNC(=O)c3cc4c(s3)CCCCCC4)CCCC2)C1 (stereo not drawn)  hCX3CR1 (Homo sapiens, UniProt P49238)            5.08
1  O=C(NCC1(CN2CCC(O)C2)CCCC1)c1cc2c(s1)CCCCCC2 (racemic) [Example 25]  hCX3CR1 (Homo sapiens, UniProt P49238)            4.93

Here is another compound to look at.
query: May I ask what pEC50 has been recorded for `COC1(C)CCN(CC2(CNC(=O)c3cc4c(s3)CCCCCC4)CCCC2)CC1` ?
result: 4.93
